Assay: Solubility test
Assay type: physicochemical
Details: JP 2nd fluid B, pH 6.8, aqueous buffer, kinetic from dmso stock; read-out: JP2_μM
Description: A 10 mmol/L solution of the compound was prepared with DMSO, and 2 μL of the compound of the present invention solution was added, respectively, to 198 μL of JP 1st fluid (water was added to 2.0 g of sodium chloride and 7.0 ml, of hydrochloric acid to reach 1000 mL) and JP 2nd fluid (See Table 4). The mixture was left standing for 16 hours at 25° C. or shaken for 1 hour at ruom temperature, and the mixture was vacuum-filtered. […]
Quantity: solubility kinetic at 1 h

INSERT INTO measurements (chemical_structure, quantity, obs_value) VALUES
  ('COc1ccc(C(=O)Nc2ccc(F)c([C@@]3(C)N=C(N)O[C@H](C(F)(F)C4CC4)[C@@H]3F)c2)nc1', 'solubility kinetic at 1 h', '6.1 µM'),
  ('C[C@]1(c2cc(NC(=O)c3ccc(C#N)cn3)ccc2F)N=C(N)O[C@H](C(F)(F)C2CC2)[C@@H]1F', 'solubility kinetic at 1 h', '19.3 µM'),
  ('C[C@H]1SC(N)=N[C@](C)(c2cccc(NC(=O)c3cnc(OCF)cn3)c2)[C@H]1F', 'solubility kinetic at 1 h', '> 50 µM'),
  ('C[C@H]1SC(N)=N[C@](C)(c2cccc(NC(=O)c3ccc(OCF)cn3)c2)[C@H]1F', 'solubility kinetic at 1 h', '> 50 µM');

###

experiment: Solubility test; assay type: physicochemical; conditions: JP 1st fluid, pH 1.2, simulated gastric fluid, kinetic from dmso stock; read-out: JP1
Quantity: solubility kinetic at 1 h

INSERT INTO assay_data (chemical_structure, obs_value) VALUES
  ('C[C@@H](F)[C@H]1OC(N)=N[C@](C)(c2cc(NC(=O)c3ccc(C#N)cn3)ccc2F)[C@H]1F', '31.9 µM'),
  ('C[C@]1(c2cc(NC(=O)c3cnc(OCF)cn3)ccc2F)N=C(N)S[C@H](CO)[C@@H]1F', '> 50 µM'),
  ('C[C@]1(c2cc(NC(=O)c3cnc(OCF)cn3)ccc2F)N=C(N)O[C@H](C(F)(F)C2CC2)[C@@H]1F', '> 50 µM'),
  ('C[C@]1(c2cc(NC(=O)c3ccc(OCF)cn3)ccc2F)N=C(N)O[C@H](C2(F)CC2)[C@@H]1F', '> 50 µM'),
  ('C[C@H]1SC(N)=N[C@](C)(c2cc(NC(=O)c3cnc(OCC(F)F)cn3)ccc2F)[C@H]1F', '> 50 µM'),
  ('C[C@H]1SC(N)=N[C@](C)(c2cccc(NC(=O)c3cnc(C(F)F)cn3)c2)[C@H]1F', '42 µM'),
  ('CC[C@H]1SC(N)=N[C@](C)(c2cc(NC(=O)c3ccc(F)cn3)ccc2F)[C@H]1F', '> 50 µM');

###

biological target: human ether-a-go-go related gene (hERG) channel (Homo sapiens); construct: expressed in transfected cells; host or cells: CHO cells; test: hERG test; format: cell-based; conditions: % inhibition of IKr tail peak current at 3 uM; CHO cells expressing hERG
Quantity: hERG_3 uM_% (%)

INSERT INTO assay_data (molecule, system_under_test, quantity, obs_value) VALUES
  ('CC(F)(F)[C@H]1OC(N)=N[C@](C)(c2cc(NC(=O)c3cnc(OCC(F)F)cn3)ccc2F)[C@H]1F [Compound I-77]', 'human ether-a-go-go related gene (hERG) channel (Homo sapiens)', 'hERG_3 uM_%', 44.1),
  ('C[C@H]1SC(N)=N[C@](C)(c2cc(NC(=O)c3ccc(F)cn3)ccc2F)C12CC(F)(F)C2 [Compound I-63]', 'human ether-a-go-go related gene (hERG) channel (Homo sapiens)', 'hERG_3 uM_%', 53.2),
  ('COc1cnc(C(=O)Nc2ccc(F)c([C@@]3(C)N=C(N)O[C@H](C(F)F)[C@@H]3C)c2)cn1 [Compound I-86]', 'human ether-a-go-go related gene (hERG) channel (Homo sapiens)', 'hERG_3 uM_%', 23.8),
  ('COc1cnc(C(=O)Nc2ccc(F)c([C@@]3(C)N=C(N)O[C@H]([C@H](C)F)[C@@H]3F)c2)cn1 [Compound I-17]', 'human ether-a-go-go related gene (hERG) channel (Homo sapiens)', 'hERG_3 uM_%', 19.5),
  ('CC#CCOc1cnc(C(=O)Nc2ccc(F)c([C@@]3(C)N=C(N)O[C@H](C(C)(F)F)[C@@H]3F)c2)cn1 [Compound I-76]', 'human ether-a-go-go related gene (hERG) channel (Homo sapiens)', 'hERG_3 uM_%', 5.8),
  ('C[C@]1(c2nc(NC(=O)c3cnc(OCF)cn3)ccc2F)N=C(N)S[C@H](CF)[C@@H]1F [Compound I-5]', 'human ether-a-go-go related gene (hERG) channel (Homo sapiens)', 'hERG_3 uM_%', 27.7),
  ('COCC(F)(F)[C@H]1OC(N)=N[C@](C)(c2cc(NC(=O)c3ccc(C#N)cn3)ccc2F)[C@H]1F [Compound I-78]', 'human ether-a-go-go related gene (hERG) channel (Homo sapiens)', 'hERG_3 uM_%', 39.6);

###

Biological target: human ether-a-go-go related gene (hERG) channel (Homo sapiens, UniProt Q12809)
Construct: expressed in transfected cells; host or cells: CHO cells
Sequence (Q12809 whole entry): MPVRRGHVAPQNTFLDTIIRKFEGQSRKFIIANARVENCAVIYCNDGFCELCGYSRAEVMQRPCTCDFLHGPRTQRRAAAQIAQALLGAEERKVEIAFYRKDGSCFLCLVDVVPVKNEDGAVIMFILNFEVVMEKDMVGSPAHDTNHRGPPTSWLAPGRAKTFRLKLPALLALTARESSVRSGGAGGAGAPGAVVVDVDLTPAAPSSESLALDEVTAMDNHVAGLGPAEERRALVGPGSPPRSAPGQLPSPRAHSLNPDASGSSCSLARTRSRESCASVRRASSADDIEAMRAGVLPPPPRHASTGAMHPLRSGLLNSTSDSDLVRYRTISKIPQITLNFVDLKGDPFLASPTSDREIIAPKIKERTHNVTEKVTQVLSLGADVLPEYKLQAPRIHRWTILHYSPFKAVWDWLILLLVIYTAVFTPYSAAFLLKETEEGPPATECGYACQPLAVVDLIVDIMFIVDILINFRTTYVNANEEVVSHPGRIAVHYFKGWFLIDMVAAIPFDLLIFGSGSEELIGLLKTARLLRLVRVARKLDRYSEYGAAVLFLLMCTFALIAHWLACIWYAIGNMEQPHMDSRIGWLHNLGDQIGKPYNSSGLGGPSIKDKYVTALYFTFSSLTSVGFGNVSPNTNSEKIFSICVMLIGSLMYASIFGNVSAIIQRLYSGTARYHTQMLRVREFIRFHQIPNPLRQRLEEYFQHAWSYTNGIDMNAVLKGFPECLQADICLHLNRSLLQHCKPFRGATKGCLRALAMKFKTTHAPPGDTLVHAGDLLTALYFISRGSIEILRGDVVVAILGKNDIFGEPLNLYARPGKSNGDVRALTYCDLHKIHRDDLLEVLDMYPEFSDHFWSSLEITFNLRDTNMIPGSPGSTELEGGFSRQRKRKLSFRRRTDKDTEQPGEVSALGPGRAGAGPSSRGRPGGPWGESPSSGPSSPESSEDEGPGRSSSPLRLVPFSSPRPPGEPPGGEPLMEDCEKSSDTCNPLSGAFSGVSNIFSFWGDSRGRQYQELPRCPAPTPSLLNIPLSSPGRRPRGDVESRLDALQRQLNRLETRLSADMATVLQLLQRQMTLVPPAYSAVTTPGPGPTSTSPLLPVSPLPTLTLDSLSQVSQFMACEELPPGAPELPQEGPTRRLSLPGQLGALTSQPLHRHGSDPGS
Experiment: hERG test
Assay type: cell-based
Details: % inhibition of IKr tail peak current at 3 uM; CHO cells expressing hERG
Source text: For the purpose of assessing risk of an electrocardiogram QT interval prolongation, effects on delayed rectifier K+ current (IKr), which plays an important role in the ventricular repolarization process of the compound of the present invention, was studied using CHO cells expressing human ether-a-go-go related gene (hERG) channel. A cell was retained at a membrane potential of […] by whole cell patch clamp method using an automated patch clamp system (QPatch:Sophion Bioscience A/S). […]
Quantity: hERG_3 uM_% (%)

INSERT INTO results (chemical_structure, obs_value) VALUES
  ('C[C@]1(c2cc(NC(=O)c3cnc(OCF)cn3)ccc2F)N=C(N)OCC12CC(F)(F)C2', 28.9),
  ('CO[C@H]1[C@@H](CF)OC(N)=N[C@]1(C)c1cc(NC(=O)c2ccc(C#N)cn2)ccc1Cl', 44.8),
  ('CC[C@H]1SC(N)=N[C@](C)(c2cc(NC(=O)c3ccc(OCF)cn3)ccc2F)[C@H]1F', 56.5),
  ('C[C@H]1SC(N)=N[C@](C)(c2cc(NC(=O)c3cnc(OCC4CC4)cn3)ccc2F)[C@H]1F', 41.4),
  ('C[C@]1(c2cc(NC(=O)c3cnc(OCF)cn3)ccc2F)N=C(N)S[C@H](CO)[C@@H]1F', 11),
  ('C[C@H]1SC(N)=N[C@](C)(c2cc(NC(=O)c3cnc(OCF)cn3)ccc2F)C12CC(F)(F)C2', 29.6),
  ('COc1cnc(C(=O)Nc2ccc(F)c([C@@]3(C)N=C(N)SCC34CC(F)(F)C4)c2)cn1', 39.5),
  ('CO[C@H]1[C@@H](C(F)(F)F)OC(N)=N[C@]1(C)c1cc(NC(=O)c2ccc(C#N)cn2)ccc1F', 15.5),
  ('COCC(F)(F)[C@H]1OC(N)=N[C@](C)(c2cc(NC(=O)c3cnc(OC)cn3)ccc2F)[C@H]1F', 8.9),
  ('CO[C@H]1[C@@H](CF)OC(N)=N[C@]1(C)c1cc(NC(=O)c2ncc(Cl)cc2Cl)ccc1F', 29.6),
  ('C[C@H]1[C@@H](C(F)F)OC(N)=N[C@]1(C)c1cc(NC(=O)c2cnc(OCF)cn2)ccc1F', 21.9),
  ('C[C@H](F)[C@H]1OC(N)=N[C@](C)(c2cc(NC(=O)c3ccc(C#N)cn3)ccc2F)[C@H]1F', 52.8),
  ('COc1cnc(C(=O)Nc2ccc(F)c([C@@]3(C)N=C(N)S[C@H](C)[C@@H]3F)c2)cn1', 16.7),
  ('C[C@H]1SC(N)=N[C@](C)(c2nc(NC(=O)c3cnc(OCF)cn3)ccc2F)[C@H]1F', 45.5),
  ('COc1cnc(C(=O)Nc2ccc(F)c([C@@]3(C)N=C(N)S[C@H](C)[C@@H]3OC)c2)cn1', 11.4);

###

biological target: P-gp (MDR1 expressing LLC-PK1 cells) (Homo sapiens, UniProt P08183); construct: host or cells: LLC-PK1; assay: P-gp substrate test; assay type: in vitro ADME; conditions: net flux = Efflux Ratio in MDR1 expressing cells / Efflux Ratio in parent LLC-PK1 cells
Sequence (P08183 whole entry): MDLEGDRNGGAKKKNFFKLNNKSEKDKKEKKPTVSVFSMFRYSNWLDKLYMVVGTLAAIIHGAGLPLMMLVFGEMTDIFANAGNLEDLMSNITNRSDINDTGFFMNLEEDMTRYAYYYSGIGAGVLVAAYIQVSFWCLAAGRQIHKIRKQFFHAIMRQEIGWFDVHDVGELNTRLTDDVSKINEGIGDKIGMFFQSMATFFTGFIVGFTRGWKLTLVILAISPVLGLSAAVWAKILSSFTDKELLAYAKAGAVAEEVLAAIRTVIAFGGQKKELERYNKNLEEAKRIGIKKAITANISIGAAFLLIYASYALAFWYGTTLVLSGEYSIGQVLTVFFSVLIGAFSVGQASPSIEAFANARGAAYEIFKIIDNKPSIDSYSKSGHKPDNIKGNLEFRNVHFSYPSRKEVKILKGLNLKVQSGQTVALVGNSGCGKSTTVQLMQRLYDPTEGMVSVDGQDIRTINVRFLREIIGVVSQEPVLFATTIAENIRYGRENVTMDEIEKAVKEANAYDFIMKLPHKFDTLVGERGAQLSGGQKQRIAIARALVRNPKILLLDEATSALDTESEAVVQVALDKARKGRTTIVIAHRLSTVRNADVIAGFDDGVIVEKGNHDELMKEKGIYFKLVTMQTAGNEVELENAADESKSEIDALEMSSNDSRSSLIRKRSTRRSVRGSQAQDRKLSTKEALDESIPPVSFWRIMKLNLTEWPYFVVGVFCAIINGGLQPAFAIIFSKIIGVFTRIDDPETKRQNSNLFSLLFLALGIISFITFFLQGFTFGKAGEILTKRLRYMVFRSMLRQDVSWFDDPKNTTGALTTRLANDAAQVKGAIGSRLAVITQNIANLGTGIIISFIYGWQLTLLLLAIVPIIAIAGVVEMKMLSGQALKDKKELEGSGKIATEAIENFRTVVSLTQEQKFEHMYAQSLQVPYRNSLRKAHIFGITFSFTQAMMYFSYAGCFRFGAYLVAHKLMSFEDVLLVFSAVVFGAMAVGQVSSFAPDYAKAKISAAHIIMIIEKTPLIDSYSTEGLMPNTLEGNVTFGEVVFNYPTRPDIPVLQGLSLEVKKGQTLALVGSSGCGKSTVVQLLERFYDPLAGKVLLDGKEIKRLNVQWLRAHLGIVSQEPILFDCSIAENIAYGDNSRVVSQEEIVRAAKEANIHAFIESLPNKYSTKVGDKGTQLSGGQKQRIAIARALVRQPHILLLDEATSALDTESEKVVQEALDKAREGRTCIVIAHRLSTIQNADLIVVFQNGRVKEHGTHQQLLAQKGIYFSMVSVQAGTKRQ
List of ER ratio (Cell: MDR1/LLC-PK1) values.
Quantity: ER ratio (Cell: MDR1/LLC-PK1)

INSERT INTO measurements (molecule, quantity, obs_value) VALUES
  ('C[C@H]1[C@@H](C(F)(F)F)OC(N)=N[C@]1(C)c1cc(NC(=O)c2ccc(C#N)cn2)ccc1F [Compound I-28]', 'ER ratio (Cell: MDR1/LLC-PK1)', 1.2),
  ('C[C@H]1SC(N)=N[C@](C)(c2cccc(NC(=O)c3cnc(C(F)F)cn3)c2)[C@H]1F [Compound I-106]', 'ER ratio (Cell: MDR1/LLC-PK1)', 1.9),
  ('CO[C@H]1[C@@H](C)SC(N)=N[C@]1(C)c1cc(NC(=O)c2cnc(OCF)cn2)ccc1F [Compound I-87]', 'ER ratio (Cell: MDR1/LLC-PK1)', 3.4),
  ('C[C@]1(c2cc(NC(=O)c3ccc(C#N)cn3)ccc2F)N=C(N)O[C@H](CF)[C@@H]1OCC(F)(F)F [Compound I-10]', 'ER ratio (Cell: MDR1/LLC-PK1)', 4),
  ('C[C@H]1SC(N)=N[C@](C)(c2cc(NC(=O)c3ncc(C#N)cc3Cl)ccc2F)[C@H]1F [Compound I-64]', 'ER ratio (Cell: MDR1/LLC-PK1)', 3.2),
  ('COc1ccc(C(=O)Nc2ccc(F)c([C@@]3(C)N=C(N)S[C@H](C)[C@@H]3F)c2)nn1 [Compound I-108]', 'ER ratio (Cell: MDR1/LLC-PK1)', 1.4),
  ('COc1cnc(C(=O)Nc2ccc(F)c([C@@]3(C)N=C(N)S[C@H](C)[C@@H]3F)c2)cn1 [Compound I-8]', 'ER ratio (Cell: MDR1/LLC-PK1)', 1.3);
